test system: M. riyadhense isolates; assay: antimicrobial susceptibility testing of clinical isolates; assay type: cell-based, Mycobacterium riyadhense; conditions: eight clinical M. riyadhense isolates; share of isolates susceptible
MEASURED_METRIC: susceptibility of isolates (%)

STRUCTURE_SMILES_STRING	OBSERVED
CO[C@H]1/C=C/O[C@@]2(C)Oc3c(C)c(O)c4c(O)c(c(/C=N/N5CCN(C)CC5)c(O)c4c3C2=O)NC(=O)/C(C)=C\C=C\[C@H](C)[C@H](O)[C@@H](C)[C@@H](O)[C@@H](C)[C@H](OC(C)=O)[C@@H]1C	100
CC(=O)NC[C@H]1CN(c2ccc(N3CCOCC3)c(F)c2)C(=O)O1	100
NCC[C@H](O)C(=O)N[C@@H]1C[C@H](N)[C@@H](O[C@H]2O[C@H](CN)[C@@H](O)[C@H](O)[C@H]2O)[C@H](O)[C@H]1O[C@H]1O[C@H](CO)[C@@H](O)[C@H](N)[C@H]1O	100
